TARGET: Glutamate receptor ionotropic, kainate 1 (Homo sapiens)
Sequence (P39086 whole entry): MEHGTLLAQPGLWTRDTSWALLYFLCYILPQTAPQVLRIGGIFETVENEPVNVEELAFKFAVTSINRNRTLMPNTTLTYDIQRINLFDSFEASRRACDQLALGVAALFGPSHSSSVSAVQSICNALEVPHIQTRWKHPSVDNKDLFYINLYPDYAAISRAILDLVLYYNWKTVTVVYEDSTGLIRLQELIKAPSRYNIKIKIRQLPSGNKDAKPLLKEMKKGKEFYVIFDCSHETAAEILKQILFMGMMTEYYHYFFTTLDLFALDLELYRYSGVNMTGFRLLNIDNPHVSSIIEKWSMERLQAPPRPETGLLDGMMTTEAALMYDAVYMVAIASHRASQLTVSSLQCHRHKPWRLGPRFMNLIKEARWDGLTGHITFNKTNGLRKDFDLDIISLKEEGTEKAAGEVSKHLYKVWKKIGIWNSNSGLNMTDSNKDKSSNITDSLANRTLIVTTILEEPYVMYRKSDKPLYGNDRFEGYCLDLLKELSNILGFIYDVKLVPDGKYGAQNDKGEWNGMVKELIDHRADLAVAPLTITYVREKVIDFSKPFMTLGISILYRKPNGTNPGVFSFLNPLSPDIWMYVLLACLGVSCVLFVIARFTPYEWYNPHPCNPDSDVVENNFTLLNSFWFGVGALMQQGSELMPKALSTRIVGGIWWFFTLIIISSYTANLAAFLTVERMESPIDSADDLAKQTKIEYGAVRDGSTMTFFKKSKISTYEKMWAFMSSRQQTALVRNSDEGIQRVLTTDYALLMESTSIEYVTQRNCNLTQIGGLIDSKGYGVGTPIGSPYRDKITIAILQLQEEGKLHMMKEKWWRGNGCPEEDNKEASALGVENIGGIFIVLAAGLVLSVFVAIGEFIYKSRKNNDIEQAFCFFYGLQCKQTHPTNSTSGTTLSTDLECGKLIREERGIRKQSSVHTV
METHOD: Displacement of [3H]-kainate from GluK1 receptor (unknown origin) at 100 uM
MEASURE_NAME: inhibition (%)

See these solved cases before continuing.
                                  mol  value_units  result
0  CCn1c2c(c3cc(OC)ccc31)CCc1ccccc1-2            %       0
1   CCn1c(-c2ccccc2)c(C)c2cc(OC)ccc21            %      32

(P) COc1ccc(-c2c(C)c3cc(OC)ccc3n2Cc2ccc(Cl)cc2)cc1
(Q) CCn1c(-c2ccc(OC)cc2)c(C)c2ccccc21
## Input Lower value for measured inhibition? Options: P , Q Please identify the chosen entry by its label.
## Output P
(P: 0%, Q: 32%)
